B1: SPOPL (parent)
chain: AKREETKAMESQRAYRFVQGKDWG

- Variants of: B1
- Assay Overview: protein stability index of a GFP-peptide fusion (GPS, HEK-293T) (PSI 1-6); higher = more stable;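 note: lentivirally expressed fusions sorted by FACS into six bins by GFP to DsRed ratio, PSI derived from sequencing read proportions per bin multiplied by bin number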
- Condition Parameters: c terminus: a fixed tail appended
# reported protein stability index; entries follow
No unit in the answer, only the number.

Ask: Output protein stability index of AKREETKALESQRAYRFVQGKDWG [M9L]
Result: 3

Ask: Output protein stability index of AKRPETKAMESQRAYRFVQGKDWG [E4P]
Result: 2.96

Ask: Output protein stability index of AKREVTKAMESQRAYRFVQGKDWG [E5V]
Result: 3.02

Ask: Output protein stability index of AKWEETKAMESQRAYRFVQGKDWG [R3W]
Result: 3.08

Ask: Output protein stability index of AKREETKAMKSQRAYRFVQGKDWG [E10K]
Result: 2.96

Ask: Output protein stability index of AVREETKAMESQRAYRFVQGKDWG [K2V]
Result: 2.98

Reference source: the supplement of paper PMC10567573
